Values from patent US8293773B2

- study-system: human CB2 receptor (Homo sapiens)
- Construct: expressed in transfected cells; membrane-enriched fractions
- Sequence (P34972 whole entry): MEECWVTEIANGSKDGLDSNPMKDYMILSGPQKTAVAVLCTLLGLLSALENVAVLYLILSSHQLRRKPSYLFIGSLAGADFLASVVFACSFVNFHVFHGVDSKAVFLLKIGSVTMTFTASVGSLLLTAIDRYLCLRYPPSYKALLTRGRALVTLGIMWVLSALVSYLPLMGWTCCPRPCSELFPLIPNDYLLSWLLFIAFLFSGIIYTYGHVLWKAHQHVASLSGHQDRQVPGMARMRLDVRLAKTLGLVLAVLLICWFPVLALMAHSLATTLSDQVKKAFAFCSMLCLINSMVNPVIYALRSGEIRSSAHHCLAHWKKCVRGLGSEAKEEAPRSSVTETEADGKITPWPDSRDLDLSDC
- protocol: competitive radioligand binding assay, displacement of [3H]CP55,940, CB2
- condition-description: human CB2 stably expressed cell line membranes
property-label: IC50 (µM)

1. O=C(Cn1nc(-c2ccc(Cl)cc2Cl)c(-c2ccc(Cl)cc2Cl)n1)N1CCCCC1 = 5.9

###

- study-system: human CB1 receptor (Homo sapiens)
- Construct: expressed in transfected cells; membrane-enriched fractions
- Sequence (P21554 whole entry): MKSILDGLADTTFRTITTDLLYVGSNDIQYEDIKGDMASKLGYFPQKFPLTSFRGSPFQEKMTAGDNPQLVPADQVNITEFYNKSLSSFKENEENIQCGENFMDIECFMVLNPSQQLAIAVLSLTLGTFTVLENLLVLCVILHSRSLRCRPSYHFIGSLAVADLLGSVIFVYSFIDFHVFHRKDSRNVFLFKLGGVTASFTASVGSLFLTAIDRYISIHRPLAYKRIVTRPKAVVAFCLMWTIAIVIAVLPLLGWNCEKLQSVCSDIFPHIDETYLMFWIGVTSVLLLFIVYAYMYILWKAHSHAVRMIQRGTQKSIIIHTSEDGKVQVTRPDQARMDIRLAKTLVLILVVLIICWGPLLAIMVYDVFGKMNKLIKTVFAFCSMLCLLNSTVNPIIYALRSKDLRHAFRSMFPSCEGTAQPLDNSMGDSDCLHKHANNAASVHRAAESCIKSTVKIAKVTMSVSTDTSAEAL
- protocol: competitive radioligand binding assay, displacement of [3H]CP55,940, CB1
- condition-description: Table 2; percent inhibition at 10 μM; 10 µM
Catalogue of CB1 Inhibition (%) (10 μM) values
property-label: CB1 Inhibition (%) (10 μM)

1. O=C(NC1CCCCC1)n1nc(-c2ccc(Cl)cc2Cl)c(-c2ccc(Cl)cc2Cl)n1 [Compound 74] = 50.80
2. O=C(NC1CCCCC1)n1nc(-c2ccc(Cl)cc2)c(-c2ccc(Cl)cc2)n1 = 19.90
3. CCCCCCCCNC(=O)n1nc(-c2ccc(Cl)cc2Cl)c(-c2ccc(Cl)cc2Cl)n1 = 19.40
4. CCCCCCCCNC(=O)n1nc(-c2ccc(Cl)cc2)c(-c2ccc(Cl)cc2)n1 = 15.70
5. O=C(NC1CCCCC1)n1nc(-c2ccc(Cl)cc2Cl)c(-c2ccc(Cl)cc2Cl)n1 [Compound 97] = 29.20
6. O=C(Cn1nc(-c2ccc(Cl)cc2Cl)c(-c2ccc(Cl)cc2Cl)n1)NC1CCCCC1 = 91.40
7. CCCCCCNC(=O)n1nc(-c2ccc(Cl)cc2Cl)c(-c2ccc(Cl)cc2Cl)n1 = 6.60

###

Catalogue of inhibition at 10 µM values
- study-system: human CB1 receptor (Homo sapiens)
- Construct: expressed in transfected cells; membrane-enriched fractions
- protocol: competitive radioligand binding assay, displacement of [3H]CP55,940, CB1
- condition-description: Table 2; percent inhibition at 10 μM
property-label: inhibition at 10 µM (%)

1. O=C(Cn1nc(-c2ccc(Cl)cc2)c(-c2ccc(Cl)cc2Cl)n1)NN1CCCCC1 = 76.1
2. COc1ccc(NC(=O)n2nc(-c3ccc(Cl)cc3Cl)c(-c3ccc(Cl)cc3Cl)n2)cc1 = 6.4
3. O=C(NC1CCCCC1)n1nc(-c2ccc(Cl)cc2)c(-c2ccc(Cl)cc2)n1 = 29.9
4. O=C(Cn1nc(-c2ccc(Cl)cc2)c(-c2ccc(Cl)cc2Cl)n1)NC1CCc2ccccc21 (centres unmarked) = 76.6
5. O=C(Cn1nc(-c2ccc(Cl)cc2)c(-c2ccc(Cl)cc2Cl)n1)NCc1cccc2c1OCO2 = 61.8
6. CCCCCCCCNC(=O)n1nc(-c2ccc(Cl)cc2)c(-c2ccc(Cl)cc2Cl)n1 = 17.7
7. CCCCCNC(=O)n1nc(-c2ccc(Cl)cc2Cl)c(-c2ccc(Cl)cc2Cl)n1 = 7
8. CSc1ccc([C@@H](O)[C@@H](CO)NC(=O)Cn2nc(-c3ccc(Cl)cc3Cl)c(-c3ccc(Cl)cc3Cl)n2)cc1 = 66.3

###

Catalogue of inhibition at 10 µM values
- study-system: human CB1 receptor (Homo sapiens)
- Construct: expressed in transfected cells; membrane-enriched fractions
- protocol: competitive radioligand binding assay, displacement of [3H]CP55,940, CB1
- condition-description: Table 2; percent inhibition at 10 μM
property-label: inhibition at 10 µM (%)

1) O=C(Cn1nc(-c2ccc(Cl)cc2)c(-c2ccc(Cl)cc2Cl)n1)NCc1ccccc1C(F)(F)F = 92.5
2) O=C(Cn1nc(-c2ccc(Cl)cc2)c(-c2ccc(Cl)cc2Cl)n1)NCc1ccc(F)cc1F = 95.2
3) CCCCCCOC(=O)Cn1nc(-c2ccc(Cl)cc2)c(-c2ccc(Cl)cc2Cl)n1 = 39.1
4) C[C@H](NC(=O)Cn1nc(-c2ccc(Cl)cc2)c(-c2ccc(Cl)cc2Cl)n1)C(O)(c1ccccc1)c1ccccc1 = 80
